Target entity: Cytochrome P450 2C19 (Homo sapiens)
Sequence (P33261 whole entry): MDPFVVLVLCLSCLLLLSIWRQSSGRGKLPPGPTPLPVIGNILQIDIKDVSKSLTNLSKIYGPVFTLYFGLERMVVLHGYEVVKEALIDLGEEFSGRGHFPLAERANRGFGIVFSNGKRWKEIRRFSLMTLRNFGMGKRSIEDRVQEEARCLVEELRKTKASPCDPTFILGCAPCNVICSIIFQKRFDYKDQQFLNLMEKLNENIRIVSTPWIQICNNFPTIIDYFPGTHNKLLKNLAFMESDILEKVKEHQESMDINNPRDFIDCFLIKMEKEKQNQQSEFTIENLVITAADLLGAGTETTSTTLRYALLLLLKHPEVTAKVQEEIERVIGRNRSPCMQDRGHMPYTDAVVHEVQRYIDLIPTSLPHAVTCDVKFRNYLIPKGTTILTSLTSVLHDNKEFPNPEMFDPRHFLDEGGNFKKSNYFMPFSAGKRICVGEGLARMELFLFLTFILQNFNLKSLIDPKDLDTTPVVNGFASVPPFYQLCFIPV
Protocol notes: Cytochrome panel assay with activity outcomes. Panel member name: p450-cyp2c19 Compounds with AC50 equal or less than 10 uM are considered active
Type: functional
Recorded conditions: read-out: AC50
Value type: AC50

Inquiry: Given the compound C/C(CC(=O)Nc1cc(Cl)ccc1Cl)=N\NC(N)=S , what is its reported AC50?
Reply text: 28.2 µM (inconclusive)

Inquiry: Same again, this time with O=c1c(-c2ccc(Cl)cc2)nc2cnc(N3CCNCC3)nc2n1Cc1cccs1
Reply text: 25.1 µM (inconclusive)

Inquiry: Same again, this time with CC(C)(C)c1cc(C=C(C#N)C#N)cc(C(C)(C)C)c1O
Reply text: 7.94 µM (inconclusive)

Inquiry: Same again, this time with Cn1/c(=N\C(=O)CCl)sc2ccccc21
Reply text: 20 µM (inconclusive)

Inquiry: Same again, this time with CO[C@H]1OC[C@@]2(C)[C@@H]3C4=C(CN2C(=O)OC(C)(C)C)[C@H](C)[C@H](CO)[C@H](CO)[C@H]4CC[C@H]13
Reply text: 39.8 µM (inconclusive)

Inquiry: Same again, this time with O=C(NCc1ccc(F)cc1)C1CCN(S(=O)(=O)N2CCCCC2)CC1
Reply text: 31.6 µM (inconclusive)

Inquiry: Same again, this time with COCCn1c(=O)c(-c2cccs2)nc2cnc(Oc3ccc(OC)cc3)nc21
Reply text: 15.8 µM (inconclusive)

Inquiry: Same again, this time with CSc1cccc(NC(=O)c2ccc(Cl)nc2)c1
Reply text: 25.1 µM (inconclusive)

Inquiry: Same again, this time with Cc1sc2c(c1C)c(=O)n(-c1ccccc1)c1nnc(C)n21
Reply text: 8.91 µM (inconclusive)

Inquiry: Same again, this time with CCSC(=N)Nc1ccc(C(F)(F)F)cc1
Reply text: 20 µM (inconclusive)

Inquiry: Same again, this time with CNc1ncnc2ccc(-c3ccccc3CN(C)C)cc12
Reply text: 20 µM (inconclusive)

Inquiry: Same again, this time with Cc1cc(C)c2nc(-c3ccccn3)cc(C(=O)Nc3ccc(S(=O)(=O)Nc4cc(C)on4)cc3)c2c1
Reply text: 17.8 µM (inconclusive)

Inquiry: Same again, this time with O=c1c(-c2ccc(F)cc2)nc2cnc(N3CCNCC3)nc2n1C1CC1
Reply text: 39.8 µM (inconclusive)

Inquiry: Same again, this time with CCOC(=O)C1CCCN(c2ncnc3c2cnn3-c2cccc(C)c2)C1 (configuration not stated)
Reply text: 20 µM (inconclusive)

Inquiry: Same again, this time with CCO[C@H]1O[C@@H]([C@H](COCc2ccccc2)OCc2ccccc2)[C@@H](OCc2ccccc2)[C@H]1O
Reply text: 5.01 µM (inconclusive)

Inquiry: Same again, this time with CC(=O)Nc1ccc(S(=O)(=O)N2CCC(N(C)CCC(C)C)CC2)cc1
Reply text: 25.1 µM (inconclusive)

Inquiry: Same again, this time with COC(=O)c1c(C)[nH]c(O)c1/C=N/c1ccc(C(C)C)cc1
Reply text: 25.1 µM (inconclusive)

----------
Consider the following molecules; for each one, report its AC50.
Target entity: Cytochrome P450 2D6 (Homo sapiens, UniProt P10635);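 further: CYP2D6 member of a cytochrome P450 panel assay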
Sequence (P10635 whole entry): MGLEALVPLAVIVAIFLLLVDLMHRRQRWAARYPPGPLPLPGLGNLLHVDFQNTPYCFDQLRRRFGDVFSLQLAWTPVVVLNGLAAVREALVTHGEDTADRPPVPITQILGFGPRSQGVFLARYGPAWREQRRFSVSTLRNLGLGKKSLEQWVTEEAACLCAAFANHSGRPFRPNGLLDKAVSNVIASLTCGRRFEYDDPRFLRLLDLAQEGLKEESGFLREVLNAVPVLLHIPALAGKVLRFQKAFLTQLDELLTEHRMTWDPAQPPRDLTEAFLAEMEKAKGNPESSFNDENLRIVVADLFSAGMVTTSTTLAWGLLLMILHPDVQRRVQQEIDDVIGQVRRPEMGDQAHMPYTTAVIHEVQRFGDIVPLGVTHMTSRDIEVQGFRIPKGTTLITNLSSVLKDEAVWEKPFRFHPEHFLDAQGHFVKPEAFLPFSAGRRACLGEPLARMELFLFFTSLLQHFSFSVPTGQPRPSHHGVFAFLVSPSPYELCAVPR

Inquiry: Given the molecule COc1ccc(-c2ccc(C(=S)N3CCN(C(C)=O)CC3)o2)cc1 , what is its reported AC50?
Reply text: 28.2 µM (inconclusive)

Inquiry: Same again, this time with CN(C)c1ccc(-c2cncnc2NCc2ccccc2)cc1
Reply text: 39.8 µM (inconclusive)

Inquiry: Same again, this time with CSc1cccc(NC(=O)c2ccc(Cl)nc2)c1
Reply text: 14.1 µM (inconclusive)

Inquiry: Same again, this time with O=S(=O)(c1ccccc1)N1CCC2(CCN(Cc3ccncc3)CC2)CC1
Reply text: 25.1 µM (inconclusive)

Values were extracted from ChEMBL document CHEMBL1201862.
